As shown below, each of these compounds has a reported EC50 value.
Test system: Tadpole
Assay: Tadpole loss of righting (LRR) and loss of swimming (LSR) reflexes
Type: in vivo
Conditions: loss of swimming reflex, ± SEM; read-out: Tadpole LSR EC50
Description: Table 3 discloses the anesthetic effects of the compounds of the present disclosure. In particular, the anesthetic effect of the compounds of the present disclosure on Loss of Righting Reflex (LRR) and Loss of Swimming Reflex (LSR). Methods used are known in the art (see Jiang, X., et al.). Error limits are calculated as standard error of the mean (N=10 or more animals at each of five or more different concentrations).

# compound, relational operator, EC50 (nM)
data = [
    ("C[C@]12C[C@H]3CC[C@@H]4C[C@@H](O)CC[C@H]4[C@@H]3C[C@@H]1CC/C2=C\\C#N", "=", 1070),
    ("CC(=O)[C@H]1CCC2CC3C(CCC4C[C@H](O)CCC43)C[C@@]21C (some centres unmarked)", "=", 1070),
    ("C[C@@]12CC[C@H](O)C[C@@H]1CC[C@@H]1C[C@]3(C)C(=O)CCC3C[C@H]12 (some centres unmarked)", "=", 5480),
    ("C[C@@]12C[C@@H]3CC[C@@H]4C[C@H](O)CC[C@@H]4[C@H]3C[C@H]1CCC2=O", ">", 10000),
    ("C[C@@]12CC3CCC4C[C@H](O)CCC4C3CC1CC[C@H]2C#N (some centres unmarked)", "=", 5480),
    ("C[C@]12C[C@H]3CC[C@@H]4C[C@@H](O)CCC4C3CC1CC[C@@]21CO1 (some centres unmarked)", "=", 540),
    ("C[C@]12C[C@H]3CCC4C[C@@H](O)CC[C@H]4[C@@H]3C[C@@H]1CCC2=O (some centres unmarked)", ">", 30000),
    ("C[C@]12C[C@H]3CC[C@@H]4C[C@@H](O)CC[C@H]4[C@@H]3C[C@@H]1CC/C2=C/C#N", "=", 1040),
]
